# tested-on: C-X-C chemokine receptor type 6 (Homo sapiens) (UniProt O00574)
# Sequence (O00574 whole entry, looked up): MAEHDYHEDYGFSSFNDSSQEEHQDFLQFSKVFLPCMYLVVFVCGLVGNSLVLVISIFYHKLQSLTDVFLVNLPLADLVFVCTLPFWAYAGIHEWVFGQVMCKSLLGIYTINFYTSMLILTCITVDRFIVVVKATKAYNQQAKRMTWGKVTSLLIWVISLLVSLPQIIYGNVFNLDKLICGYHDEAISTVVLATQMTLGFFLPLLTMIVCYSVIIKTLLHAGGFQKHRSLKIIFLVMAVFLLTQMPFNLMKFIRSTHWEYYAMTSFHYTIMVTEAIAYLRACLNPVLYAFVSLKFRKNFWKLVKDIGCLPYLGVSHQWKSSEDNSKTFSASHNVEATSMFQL
# test-name: potency against CXCR6 with APJ panel – cell-based, beta-arrestin, DiscoveRx, uHTS hits, dose response (AID 624129)
# condition-description: CXCR6 beta-arrestin (DiscoveRx) antagonist cell assay, CXCR6, run 2, dose range 1
measurement-name: IC50 (µM)
Quick note: give the figure in µM, leave out the unit.

Illustrative cases are given below, each with its answer.
{"compound": "CC(C)(C)c1ccc(CN2N=Nc3ccccc3S2(=O)=O)cc1", "measure-unit": "µM", "recorded-result": 20}
{"compound": "CCC(=O)OCOc1ccc(/C=C2/CCC(CN(C)C)C2=O)cc1 (stereo not drawn)", "measure-unit": "µM", "recorded-result": 10.2}
{"compound": "CCOC(=O)CSc1cccc2cccnc12", "measure-unit": "µM", "recorded-result": 8.08}
{"compound": "COc1ccc(OC)c2sc(N(CCCN(C)C)C(=O)CCS(=O)(=O)c3ccccc3)nc12", "measure-unit": "µM", "recorded-result": 10.6}
{"compound": "O=C(c1nnsc1S(=O)c1ccc(Cl)cc1)N1CCOCC1 (stereo not drawn)", "measure-unit": "µM", "recorded-result": 17.4}
{"compound": "CCOc1ccc2nc(NC(=O)c3ccccn3)sc2c1", "measure-unit": "µM", "recorded-result": 12.7}
{"compound": "O=C(CSc1cccc2cccnc12)N/N=C/c1cccnc1", "measure-unit": "µM", "recorded-result": 4.25}
{"compound": "CCS(=O)(=O)c1ncc(Cl)c(C(=O)Nc2ccc(S(=O)(=O)N3CCCC(C)C3)cc2)n1 (stereo not drawn)", "measure-unit": "µM", "recorded-result": 10.3}
{"compound": "Cc1ccc2c(C)ccc(O)c2n1", "measure-unit": "µM", "recorded-result": 5.82}
{"compound": "O=C(NNC(=O)C12CC3CC(CC(C3)C1)C2)c1ccccn1", "measure-unit": "µM", "recorded-result": 8.52}

Give the measured IC50 for COC(=O)C1=C(c2ccc(-c3ccccc3)c(F)c2)C[C@@H]2CC[C@H]1N2C(=O)N1CCC(C)CC1
10.8

Could you please provide reported IC50 for O=S(=O)(Nc1cccc2cccnc12)c1ccccc1 ? Thanks!
14.5

Consider the compound O=C(CSc1nc(-c2ccco2)cc(C(F)(F)F)n1)NCCCn1ccnc1 and give its recorded IC50.
18.3

Give a short answer stating reported IC50 for COc1ccc(CCN2C(=O)C=CC2=O)cc1OC .
7.37

# return recorded IC50 for input CC(=NNc1nc2ccccc2s1)c1ncccn1
10.5

Note down IC50 recorded for O=C1C(Cc2ccccc2)Nc2ncnc(N3CCN(c4ccccc4)CC3)c2N1Cc1ccc(Cl)cc1 (stereo not drawn)
2.04

###

# tested-on: C-C chemokine receptor type 6 (Homo sapiens)
# test-name: potency against CXCR6 with APJ panel – cell-based, beta-arrestin, DiscoveRx, uHTS hits, dose response (AID 624129)
# condition-description: CXCR6 beta-arrestin (DiscoveRx) antagonist cell assay, CCR6, run 2, dose range 1
pIC50: −log10 of the molar value.
Rule: pIC50 of 5 or more gives Fulfilled; anything lower gives Not fulfilled.

Answer whether pIC50 of COc1cc(/C=C/c2ccc3cccc(O)c3n2)cc(OC)c1OC is greater than or equal to 5.
Fulfilled

###

# tested-on: Apelin receptor (Homo sapiens) (UniProt P35414)
# test-name: potency against CXCR6 with APJ panel – cell-based, beta-arrestin, DiscoveRx, uHTS hits, dose response (AID 624129)
# condition-description: CXCR6 beta-arrestin (DiscoveRx) antagonist cell assay, APJ, dose range 1, mean IC50 across replicates
measurement-name: IC50 (µM)
Record the value in µM, omitting the unit from your answer.

Use these answered entries as a reference point.
{"compound": "C=C1CC(COc2ccc3c(C)c(Cl)c(=O)oc3c2)(c2ccccc2)OC1=O (stereo not given)", "IC50 (µM)": 35.3}
{"compound": "COc1ccc(C[C@@H]2OC3(C=CC(=O)C=C3)O[C@H]2Cc2ccc(OC)cc2)cc1", "IC50 (µM)": 7.02}
{"compound": "O=C1C=CC(=O)N1c1ccc(-c2nc3ccccc3o2)cc1", "IC50 (µM)": 5.31}
{"compound": "CCCC(=O)OCCNc1cc(Sc2nccn2C)c2nonc2c1[N+](=O)[O-]", "IC50 (µM)": 6.22}
{"compound": "CCn1c(Cl)c(C=O)s/c1=N\\S(=O)(=O)c1ccccc1", "IC50 (µM)": 5.99}
{"compound": "O=C1C(=C(c2ccccc2)N2CCOCC2)Cc2ccccc21", "IC50 (µM)": 13.2}
{"compound": "COc1ccc([N+](=O)[O-])c(S(=O)(=O)c2ccc(Cl)cc2)n1", "IC50 (µM)": 49.4}

Field: next compound
Supply measured IC50 of CCC(C)c1ccc(O)c(NC(=S)NC(=O)c2cccnc2)c1 (stereo not given) in your reply.
11.3
